# assayedTarget: Alpha-2C adrenergic receptor (Homo sapiens)
# Sequence (P18825 whole entry): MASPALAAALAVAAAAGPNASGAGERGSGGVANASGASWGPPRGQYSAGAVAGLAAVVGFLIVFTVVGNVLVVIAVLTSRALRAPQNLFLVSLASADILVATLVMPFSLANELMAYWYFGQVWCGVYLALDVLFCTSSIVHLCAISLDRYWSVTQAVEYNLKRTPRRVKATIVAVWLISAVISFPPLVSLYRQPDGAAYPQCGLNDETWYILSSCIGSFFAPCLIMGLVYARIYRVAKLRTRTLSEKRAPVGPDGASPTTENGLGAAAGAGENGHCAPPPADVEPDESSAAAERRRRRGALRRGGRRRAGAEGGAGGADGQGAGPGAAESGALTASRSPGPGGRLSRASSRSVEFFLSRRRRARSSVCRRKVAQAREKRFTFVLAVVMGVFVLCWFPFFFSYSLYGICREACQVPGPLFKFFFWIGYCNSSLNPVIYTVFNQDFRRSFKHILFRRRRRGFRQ
# measurementNotes: Agonist activity at human Alpha-2C adrenoceptor expressed in CHO cells assessed as induction of extracellular acidification by microphysiometry
pEC50: −log10 of the molar value.
Think of 7 as a floor: if pEC50 stands on it or above, it is True; beneath it, False.

The examples below pair each entry with its known result.
{"compound": "C[C@@H](Oc1ccccc1-c1cccc(O)c1)C1=NCCN1", "category": "True"}
{"compound": "C[C@H](Oc1ccccc1-c1cccc(O)c1)C1=NCCN1", "category": "False"}
{"compound": "C=CCc1ccccc1O[C@H](C)C1=NCCN1", "category": "False"}
{"compound": "C[C@H](Oc1ccccc1C1CC1)C1=NCCN1", "category": "True"}
{"compound": "C=CCc1ccccc1O[C@@H](C)C1=NCCN1", "category": "True"}

Given CC(Oc1ccccc1C1CC1)C1=NCCN1 (racemic) , state whether its pEC50 is at least 7. True

What do you get for C[C@H](Oc1ccccc1-c1ccsc1)C1=NCCN1 ? True

// data source = ChEMBL document CHEMBL1275329
